Readings of T½ Value for the listed binders
- target_or_test_system: T1, HLA-A*0201 HLA class I MHC monomer (iTopia Epitope Discovery System, coated on plate) (human)
- T1 construct: Placeholder peptide stripped; also called HLA-A2; MHC class I monomer
- run_description: iTopia EDS off-rate assay at 37 C; time to 50% complex dissociation
The figure you give is taken to be in h; do not add the unit.

Example entries and their recorded answers appear below.
binder	T½ Value, h
AMLKCLSEG (Synthetic nonapeptide of human nectin4; the range counts on nectin4) [Nectin4 peptide 266 (AMLKCLSEG)]	6.8
GTSDVVTVV (Synthetic nonapeptide of human nectin4; the range counts on nectin4) [Nectin4 peptide 35 (GTSDVVTVV)]	2.9
DQNLWHIGR (Synthetic nonapeptide of human nectin4; the range counts on nectin4) [Nectin4 peptide 255 (DQNLWHIGR)]	5.4
VIAALLFCL (Synthetic nonapeptide of human nectin4; the range counts on nectin4) [Nectin4 peptide 355 (VIAALLFCL)]	5.2
LLFCLLVVV (Synthetic nonapeptide of human nectin4; the range counts on nectin4) [Nectin4 peptide 359 (LLFCLLVVV)]	7.4
ALLHSKYGL (Synthetic nonapeptide of human nectin4; the range counts on nectin4; also called Pep N° 80) [Nectin4 peptide 80 (ALLHSKYGL)]	7.8
HILHVSFLA (Synthetic nonapeptide of human nectin4; the number is the start position in nectin4 (the range counts on nectin4)) [Nectin4 peptide 238 (HILHVSFLA)]	6.7

Tell me T½ Value reported for SMNGQPLTC (Synthetic nonapeptide of human nectin4; the range counts on nectin4) [Nectin4 peptide 215 (SMNGQPLTC)]
6.8
